test-system: α7 nAChR S36I mutant (Homo sapiens, UniProt P36544, S58I)
Sequence (P36544 23-502 S58I): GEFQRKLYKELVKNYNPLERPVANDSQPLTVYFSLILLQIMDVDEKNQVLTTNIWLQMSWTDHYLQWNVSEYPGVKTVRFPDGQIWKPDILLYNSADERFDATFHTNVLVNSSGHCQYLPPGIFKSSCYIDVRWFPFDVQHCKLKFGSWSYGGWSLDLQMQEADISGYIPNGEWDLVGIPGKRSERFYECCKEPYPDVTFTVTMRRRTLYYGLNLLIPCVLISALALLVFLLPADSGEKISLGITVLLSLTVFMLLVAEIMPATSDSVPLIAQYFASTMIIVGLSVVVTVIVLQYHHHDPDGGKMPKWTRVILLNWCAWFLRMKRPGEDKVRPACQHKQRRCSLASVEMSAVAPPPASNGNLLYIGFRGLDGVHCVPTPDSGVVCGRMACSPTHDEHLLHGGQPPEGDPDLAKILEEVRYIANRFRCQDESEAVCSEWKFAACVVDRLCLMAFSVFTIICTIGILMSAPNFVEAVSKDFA
experiment: Concentration-response curves
Type: cell-based
assay-conditions: net charge CRC, parenthetical = curve-fit error
Kindly state pEC50 for each of the entries shown.
Answers are plain numbers, as −log10 of the molar value.

Some solved cases for reference:
compound="Cc1ccc(C=C2CCCN=C2c2cccnc2)cc1 [4MeBA, 3-(4-methylbenzylidene)anabaseine]" test_readout=pEC50 reported_result=4.75
compound="C(=C1CCCN=C1c1cccnc1)c1ccccc1 [BA, benzylidene anabaseine]" test_readout=pEC50 reported_result=4.09

Okay, now this compound:
For this compound ( Oc1ccc(/C=C2\CCCN=C2c2cccnc2)cc1 [4OHBA, (E)-3-(4-hydroxybenzylidene)anabaseine] ), measured pEC50 is 5.64

====

Exercise: state measured IC50 for each of the compounds provided.
test-system: WT α7 nAChR (Homo sapiens)
Sequence (P36544 23-502): as the sequence (P36544 23-502 S58I) above, with I36S counted along it
experiment: Residual desensitization
assay-conditions: read-out: IC50 (RD curve), potency for producing long-lasting desensitization, 12 s applications
One number for each entry, in µM.

smiles_repr=Cc1ccc(C=C2CCCN=C2c2cccnc2)cc1 test_system="WT α7 nAChR (Homo sapiens)" test_readout=IC50 units_label=µM reported_result=110

# context switch: different compound, same IC50
Noted for `C(=C1CCCN=C1c1cccnc1)c1ccccc1` : its IC50 reads 270

====

test-system: α7 nAChR S36A mutant (Homo sapiens, UniProt P36544, S58A)
Sequence (P36544 23-502 S58A): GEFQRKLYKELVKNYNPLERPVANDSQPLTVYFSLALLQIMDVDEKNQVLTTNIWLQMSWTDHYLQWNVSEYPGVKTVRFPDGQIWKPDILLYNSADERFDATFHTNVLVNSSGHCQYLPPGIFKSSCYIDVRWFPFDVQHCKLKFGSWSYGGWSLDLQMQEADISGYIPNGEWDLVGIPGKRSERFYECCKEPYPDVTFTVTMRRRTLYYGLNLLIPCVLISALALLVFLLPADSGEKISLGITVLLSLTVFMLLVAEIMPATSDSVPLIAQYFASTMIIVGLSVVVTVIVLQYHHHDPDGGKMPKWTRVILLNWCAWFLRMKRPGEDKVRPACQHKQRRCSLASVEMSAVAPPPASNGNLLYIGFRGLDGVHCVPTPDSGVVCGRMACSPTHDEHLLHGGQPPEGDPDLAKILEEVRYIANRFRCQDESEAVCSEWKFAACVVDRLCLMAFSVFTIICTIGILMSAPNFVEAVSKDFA
experiment: Residual desensitization
assay-conditions: read-out: IC50 (RD curve), potency for producing long-lasting desensitization, 12 s applications
test-readout: IC50 (µM)
Numbers only, in µM.

// worked examples, IC50 included
compound="Oc1ccc(/C=C2\\CCCN=C2c2cccnc2)cc1 [4OHBA, (E)-3-(4-hydroxybenzylidene)anabaseine]" test_readout=IC50 reported_result=203
compound=C(=C1CCCN=C1c1cccnc1)c1ccccc1 test_readout=IC50 reported_result=91

With those in mind, consider the next compound.
// field: IC50; key: `Cc1ccc(C=C2CCCN=C2c2cccnc2)cc1` ; value = 145

====

test-system: α7 nAChR S36A mutant (Homo sapiens, UniProt P36544, S58A)
experiment: Concentration-response curves
assay-conditions: net charge CRC, parenthetical = curve-fit error
test-readout: pEC50
Answers are plain numbers, as −log10 of the molar value.

For every listed record, write down its pEC50.
1. C(=C1CCCN=C1c1cccnc1)c1ccccc1
2. Oc1ccc(/C=C2\CCCN=C2c2cccnc2)cc1 [4OHBA, (E)-3-(4-hydroxybenzylidene)anabaseine]
3. Cc1ccc(C=C2CCCN=C2c2cccnc2)cc1

Response line:
1. 4.57
2. 6.24
3. 5.10

====

test-system: α7 nAChR S36V mutant (Homo sapiens, UniProt P36544, S58V)
Sequence (P36544 23-502 S58V): as the sequence (P36544 23-502 S58A) above, with A36V counted along it
experiment: Residual desensitization
assay-conditions: read-out: IC50 (RD curve), potency for producing long-lasting desensitization, 12 s applications
test-readout: pIC50
Numbers only, as −log10 of the molar value.

compound=Cc1ccc(C=C2CCCN=C2c2cccnc2)cc1 test_readout=pIC50 reported_result=4.04
compound="Oc1ccc(/C=C2\\CCCN=C2c2cccnc2)cc1 [4OHBA, (E)-3-(4-hydroxybenzylidene)anabaseine]" test_readout=pIC50 reported_result=4.21

Turning now to a further record.
// field: pIC50; key: `C(=C1CCCN=C1c1cccnc1)c1ccccc1` ; value = 3.66

====

test-system: α7 nAChR S36I mutant (Homo sapiens, UniProt P36544, S58I)
experiment: Residual desensitization
assay-conditions: read-out: IC50 (RD curve), potency for producing long-lasting desensitization, 12 s applications
pIC50: −log10 of the molar value.
test-readout: pIC50

In the examples that follow, each entry is paired with its recorded pIC50.
compound="C(=C1CCCN=C1c1cccnc1)c1ccccc1 [BA, benzylidene anabaseine]" reported_result="< 3.52"
compound="Cc1ccc(C=C2CCCN=C2c2cccnc2)cc1 [4MeBA, 3-(4-methylbenzylidene)anabaseine]" reported_result=3.82

Lookup result for Oc1ccc(/C=C2\CCCN=C2c2cccnc2)cc1 [4OHBA, (E)-3-(4-hydroxybenzylidene)anabaseine] ; measured pIC50: < 3.52

Hello, the source for this data is paper PMC3593249, in case you need it.
